assay: Cytotoxicity against human HuH7 cells assessed as cell viability at 0.5 uM after 3 days by CellTiter Glo assay; assay type: cell-based, Huh-7; conditions: read-out: Activity
Endpoint: viability at 72 h, 0.5 µM (%)
Enter your answer as a number in %; do not include the unit.

Reported viability at 72 h, 0.5 µM for `C[C@@]1(O)[C@H](O)[C@@H](CO)O[C@H]1n1cnc2c(N)ncnc21` was 87

* * *

experiment: Cytotoxicity against human HuH7 cells assessed as cell viability at 10 uM after 3 days by CellTiter Glo assay; type: cell-based, Huh-7; settings: read-out: Activity
# viability at 72 h, 10 µM annotations
Enter your answer as a number in %; do not include the unit.

Known results for compounds:
[[record]]
compound = "O=C(O)c1cn(CCO)c2cc(-c3ccco3)ccc2c1=O"
endpoint_value = 100

[[record]]
compound = "O=C(O)c1cn(CCO)c2ccc(-c3ccoc3)cc2c1=O"
endpoint_value = 100

[[record]]
compound = "O=C(O)c1cn(CCCO)c2cc(-c3cccs3)ccc2c1=O"
endpoint_value = 97

[[record]]
compound = "O=C(O)c1cn(CCO)c2ccc(-c3cc4ccccc4s3)cc2c1=O"
endpoint_value = 100

[[record]]
compound = "O=C(O)c1cn(CCO)c2ccc(-c3cccs3)cc2c1=O"
endpoint_value = 100


Reported viability at 72 h, 10 µM for `O=C(O)c1cn(Cc2ccccc2)c2ccc(I)cc2c1=O` was 99

Reported viability at 72 h, 10 µM for `O=C(O)c1cn(CCO)c2cc(-c3cc4ccccc4o3)ccc2c1=O` was 94

Reported viability at 72 h, 10 µM for NC(=O)c1ncn([C@@H]2O[C@H](CO)[C@@H](O)[C@H]2O)n1 [RIBAVIRIN] was 92
